system: P388; test: Cytotoxicity against mouse P388 cells by MTT assay; format: functional, cell-based
pIC50: −log10 of the molar value.
I would appreciate it if you labelled entries 1.0 when pIC50 is 5 or higher, otherwise 0.0.

[in] # bool: pIC50 of COc1ccc(-c2cc(OC)c3c(oc4cc(O)c(O)cc43)c2OC)cc1 >= 5
[out] 0.0

[in] # repeat for COc1c(-c2ccc(O)c(CC=C(C)C)c2)cc(OC)c2c1oc1cc(O)c(O)cc12
[out] 0.0

[in] # repeat for COc1cc(-c2ccc(O)cc2)c(OC)c(O)c1-c1cc(O)c(O)c(CC=C(C)C)c1
[out] 0.0

[in] # repeat for COc1cc(-c2ccc(O)cc2)c(OC)c(O)c1-c1ccc(O)c(O)c1
[out] 0.0

[in] # repeat for COc1cc(-c2ccc(O)cc2)c(OC)c(O)c1-c1ccc(O)cc1
[out] 0.0

[in] # repeat for COc1cc(-c2ccccc2)c(OC)c(O)c1-c1ccc(O)c(O)c1
[out] 1.0

[in] # repeat for COc1cc2oc3c(OC)c(-c4ccc(O)c(CC=C(C)C)c4)cc(OC)c3c2cc1O
[out] 0.0

[in] # repeat for COc1c(-c2ccc(O)cc2)cc(OC)c2c1oc1cc(O)c(O)cc12
[out] 0.0

[in] # repeat for COc1cc2oc3c(OC)c(-c4ccc(O)c(CC=C(C)C)c4)cc(OC)c3c2cc1OC
[out] 1.0

[in] # repeat for COc1cc(-c2ccc(O)cc2)c(OC)c(O)c1-c1ccc(O)c(CC=C(C)C)c1
[out] 1.0
